- systemTested: N-WASPC (N-WASP residues 193-501) (UniProt O08816 193-501)
- Sequence (O08816 193-501): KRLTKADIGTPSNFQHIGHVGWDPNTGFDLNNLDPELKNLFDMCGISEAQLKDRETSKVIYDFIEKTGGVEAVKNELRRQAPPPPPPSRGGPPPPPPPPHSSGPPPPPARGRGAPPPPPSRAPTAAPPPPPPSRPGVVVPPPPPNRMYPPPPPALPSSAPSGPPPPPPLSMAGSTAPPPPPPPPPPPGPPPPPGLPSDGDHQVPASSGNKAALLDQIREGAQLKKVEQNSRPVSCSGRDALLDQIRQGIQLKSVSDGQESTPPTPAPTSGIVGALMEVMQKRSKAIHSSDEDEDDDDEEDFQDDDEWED
- testSummary: ITC
assayEndpoint: Kd (nM)
Write it as a number; the unit nM goes unstated.

If you can, please state the reported Kd value of LPDVAQRLMQHLAEHGIQPARNMAEHIPPAPNW (domain or fragment) [EspFU R33 (N-terminal 33-residue fragment of the fifth repeat)] .
35

Further cases:
If you can, please state the reported Kd value of LPDVAQRLMQHLAEHGIQ [EspFU R18 peptide] .
4000

Source of measurements: paper PMC2719906
